- Test system: Pseudomonas aeruginosa
- Assay details: Activity of Pseudomonas aeruginosa strain PS 297 metallo-beta-lactamase IMP-18 expressed in Escherichia coli BL21(DE3) assessed as substrate hydrolysis using 100 uM nitrocefin
Hi there, I'd appreciate the recorded Km for every entry that follows.

For the compound CC(=O)OCC1=C(C(=O)O)N2C(=O)[C@@H](NC(=O)Cc3cccs3)[C@H]2SC1 , what Km is on record? 0.1 µM

Recorded Km of O=C(Cc1cccs1)N[C@@H]1C(=O)N2C(C(=O)O)=C(/C=C/c3ccc([N+](=O)[O-])cc3[N+](=O)[O-])CS[C@H]12 , please. 9 µM

Any idea what its Km is? The compound is C[C@@H](O)[C@H]1C(=O)N2C(C(=O)O)=C(S[C@@H]3CN[C@H](C(=O)Nc4cccc(C(=O)O)c4)C3)[C@H](C)[C@H]12 2.6 µM

Batch: Km for all items listed.
1. CC1(C)S[C@@H]2[C@H](NC(=O)[C@H](C(=O)O)c3ccsc3)C(=O)N2[C@H]1C(=O)O
2. C[C@H]1[C@H](NC(=O)/C(=N\OC(C)(C)C(=O)O)c2csc(N)n2)C(=O)N1S(=O)(=O)O

["180 µM", "> 1000 µM"]

Go through the items and report each one's Km.
1. CO/N=C(\C(=O)N[C@@H]1C(=O)N2C(C(=O)O)=C(COC(N)=O)CS[C@H]12)c1ccco1
2. CC(C)(O/N=C(\C(=O)N[C@@H]1C(=O)N2C(C(=O)[O-])=C(C[n+]3ccccc3)CS[C@H]12)c1csc(N)n1)C(=O)O
3. CC1(C)S[C@@H]2[C@H](NC(=O)[C@H](N)c3ccccc3)C(=O)N2[C@H]1C(=O)O
4. C[C@@H](O)[C@H]1C(=O)N2C(C(=O)O)=C(SCCNC=N)C[C@H]12 [IMIPENEM ANHYDROUS]
5. CCN1CCN(C(=O)N[C@@H](C(=O)N[C@@H]2C(=O)N3[C@@H]2SC(C)(C)[C@@H]3C(=O)O)c2ccccc2)C(=O)C1=O
6. CC1(C)S[C@@H]2[C@H](NC(=O)Cc3ccccc3)C(=O)N2[C@H]1C(=O)O
7. CO[C@@]1(NC(=O)C(C(=O)O)c2ccsc2)C(=O)N2[C@@H](C(=O)O)C(C)(C)S[C@@H]21 (stereo not given in full)

7 µM
1.3 µM
103 µM
7 µM
> 200 µM
90 µM
> 1000 µM

Required: Km, one value per compound below.
1. CO/N=C(\C(=O)N[C@@H]1C(=O)N2C(C(=O)[O-])=C(C[N+]3(C)CCCC3)CS[C@H]12)c1csc(N)n1
2. C[C@@H](O)[C@H]1C(=O)N2C(C(=O)O)=C(S[C@@H]3CN[C@H](C(=O)N(C)C)C3)[C@H](C)[C@H]12
3. CO/N=C(\C(=O)N[C@@H]1C(=O)N2C(C(=O)O)=C(COC(C)=O)CS[C@H]12)c1csc(N)n1

0.8 µM
8.4 µM
3 µM
